System: CAOV3
procedure-summary: Primary qHTS to identify gynecologic anti-cancer compounds using libraries of approved drugs and bioactive compounds (AID 1345084); note: % is set by controls: 0 for no effect and ±100 for the full control effect; nearly all actives have a fitted effect of over 55% in size
condition-parameters: Gynecologic cancer cell panel viability, ATPlite luminescence, 48 h; series mostly up to 57.5 µM
Results filed as inconclusive are left out. Active and inactive are the calls of the source. Calls come from the whole dose curve; as a rule, active = well fitted cell-killing curve with a large enough effect; inconclusive = small, poorly fitted or top-dose-only effect, or effect the other way; inactive = flat fitted curve, though single readings scatter.
measured-parameter: activity change, negative = cytotoxicity

molecule=COc1ccnc(CCc2nc3ncccc3[nH]2)c1 val=inactive
molecule=COc1ccc(N2CCN(CCCNC(=O)Cn3c(=O)c4cccn4c4c(C)ccnc43)CC2)cc1 val=inactive
molecule="CC1(C)CC[C@]2(C(=O)O)CC[C@]3(C)C(=CCC4[C@@]5(C)CC[C@H](O[C@@H]6O[C@H](C(=O)O)[C@@H](O)[C@H](O[C@@H]7O[C@H](CO)[C@H](O)[C@H](O)[C@H]7O)[C@H]6O[C@@H]6O[C@H](CO)[C@@H](O)[C@H](O)[C@H]6O)C(C)(C)C5CC[C@]43C)[C@@H]2C1 (stereo not given in full)" val="0.251% [at 6.55 µM] (inactive)"
molecule=C[C@]12CC[C@@H]3c4ccc(O)cc4CC[C@H]3[C@@H]1C[C@@H](O[C@@H]1O[C@H](C(=O)O)[C@@H](O)[C@H](O)[C@H]1O)[C@@H]2O val=inactive
molecule="CC1OC(O[C@H]2CC[C@@]3(C)C(CC[C@]4(C)C3CC=C3C5CC(C)(C)CC[C@]5(C(=O)OC5OC(CO)C(OC6OCC(OC7OCC(O)C(O)C7O)C(O)C6O)C(O)C5O)CC[C@]34C)C2(C)C)C(O)C(O)C1OC1OC(CO)C(O)C(OC2OC(CO)C(O)C(O)C2O)C1O (stereo not given in full)" val="2.33% [at 6.55 µM] (inactive)"

---

Test system: C33A
procedure-summary: Primary qHTS to identify gynecologic anti-cancer compounds using libraries of approved drugs and bioactive compounds (AID 1345084); note: % is set by controls: 0 for no effect and ±100 for the full control effect; nearly all actives have a fitted effect of over 55% in size
condition-parameters: Gynecologic cancer cell panel viability, ATPlite luminescence, 48 h; series mostly up to 57.5 µM
Inconclusive results are not listed. The source made the active and inactive calls. Calls follow the shape of the dose curve; as a rule, active = well fitted cell-killing curve with a large enough effect; inconclusive = small, poorly fitted or top-dose-only effect, or effect the other way; inactive = flat fitted curve, though single readings scatter.
measured-parameter: activity change, negative = cytotoxicity

compound="COc1ccc(C2OCC3C(c4cc(OC)c5c(c4)OCO5)OCC23)cc1OC (centres undefined)" measured_parameter="activity change, negative = cytotoxicity" val=inactive
compound=COc1c(O)cc2c(c1O)C(=O)O[C@H](C)[C@H]2O measured_parameter="activity change, negative = cytotoxicity" val=inactive
compound="C/C=C(/C)C(=O)OC1C(OC(C)=O)C23C(O)OC4(CCC5C6(C)CCC(OC7OC(C(=O)O)C(O)C(OC8OC(CO)C(O)C(O)C8OC8OC(C)C(O)C(O)C8OC8OCC(O)C(O)C8O)C7OC7OC(CO)C(O)C(O)C7O)C(C)(C)C6CCC5(C)C4(C)CC2OC(C)=O)C3CC1(C)C (centres undefined)" measured_parameter="activity change, negative = cytotoxicity" val="8.72% [at 6.55 µM] (inactive)"
compound=Cc1cc(CNC(=O)c2cc(C(=O)NCc3ccc(F)c(C)c3)ncn2)ccc1F measured_parameter="activity change, negative = cytotoxicity" val=inactive

---

Tested on: Nanoluciferase (engineered Oplophorus gracilirostris luciferase)
procedure-summary: Primary Nanoluciferase (NLuc) qHTS assay for identification of artifact compounds. (AID 1845222);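 note: NLuc secreted into diluted conditioned medium of S16 cells; 0% = DMSO and -100% = no enzyme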
condition-parameters: NLuc-conditioned medium, Nano-Glo luminescence, 5 min; series mostly up to 54.1 µM
Active and inactive are the calls of the source. Calls come from the whole dose curve; as a rule, active = well fitted inhibition curve with a large enough effect; inconclusive = small, poorly fitted or top-dose-only effect; inactive = flat fitted curve, though single readings scatter.
measured-parameter: activity, negative = inhibition

compound=N[C@@H](CCNCc1ccc(Cl)cc1)C(=O)N1CCCCC1 measured_parameter="activity, negative = inhibition" val=inactive
compound=c1cc(-c2cc(C3CCNCC3)[nH]n2)ccn1 measured_parameter="activity, negative = inhibition" val=inactive
compound="CC1OC(OC2C(OC(=O)[C@]34CCC(C)(C)C[C@H]3C3=CCC5[C@@]6(C)CC[C@H](OC7OC(C(=O)O)C(O)C(O)C7O)C(C)(C)C6CC[C@@]5(C)[C@]3(C)CC4O)OC(CO)C2O)C(O)C(O)C1OC1OCC(O)C(O)C1O (some centres not stated)" measured_parameter="activity, negative = inhibition" val="0% [at 11.6 µM] (inactive)"
compound=CNc1nc(Cc2ccccc2)nc2c1CCNC[C@@H]2C measured_parameter="activity, negative = inhibition" val=inactive
compound=COC(=O)C1=CO[C@@H](O[C@@H]2O[C@H](CO)[C@@H](O)[C@H](O)[C@H]2O)[C@@H]2C(CO)=CC[C@H]12 measured_parameter="activity, negative = inhibition" val=inactive
compound=C#CCCCn1cc(-c2cccc3c2N[C@@H](C)CC(=O)N3)cn1 measured_parameter="activity, negative = inhibition" val=inactive
compound="C[C@H]1[C@@H](O)[C@H](O)C2[C@]3(C)C([C@@H](O)[C@H]4OC(=O)[C@@H]1[C@@]24C)[C@](C)(O)C=C[C@H]3O[C@@H]1O[C@H](CO)[C@@H](O)[C@H](O)[C@H]1O (some centres not stated)" measured_parameter="activity, negative = inhibition" val=inactive
compound=C=C[C@H]1[C@H](O[C@@H]2O[C@H](CO)[C@@H](O)[C@H](OC(=O)/C=C/c3ccc(O)c(OC)c3)[C@H]2O)OC=C2C(=O)OCC[C@]21O measured_parameter="activity, negative = inhibition" val=inactive
compound=COc1cccc(OC)c1-c1cc(C(=O)N[C@@H](CC(C)C)C(=O)O)nn1-c1ccnc2cc(Cl)ccc12 measured_parameter="activity, negative = inhibition" val=inactive
compound=COc1cccc(C(=O)NCCNc2nc3cc(C)cc(C)c3cc2C#N)c1 measured_parameter="activity, negative = inhibition" val=inactive
compound="CC(=O)/C=C/C1C(C)CC(O[C@@H]2O[C@H](CO)[C@@H](O)[C@H](O)[C@H]2O)CC1(C)C (some centres not stated)" measured_parameter="activity, negative = inhibition" val=inactive
compound="CCC(C)C(=O)O[C@H]1[C@@H](O[C@H]2O[C@H](CO)[C@@H](O)[C@H](O)[C@H]2O)O[C@H](CO)[C@@H](O)[C@@H]1O (some centres not stated)" measured_parameter="activity, negative = inhibition" val=inactive
compound="CC(NC(=O)CC(=O)O)C(=O)Nc1ccccc1C(N)=O (configuration not stated)" measured_parameter="activity, negative = inhibition" val=inactive
compound=CC1=C[C@H](O)[C@H]2C(C)(C)CCC[C@]2(C)[C@@]1(O)CO measured_parameter="activity, negative = inhibition" val=inactive
compound=COc1ccc(CCC(=O)O)c(O[C@@H]2O[C@H](CO)[C@@H](O)[C@H](O)[C@H]2O)c1 measured_parameter="activity, negative = inhibition" val=inactive
compound="COc1c(C)c(OCC(O)C(C)(C)O)cc2c1CNC2=O (configuration not stated)" measured_parameter="activity, negative = inhibition" val=inactive
compound="CCC1=C(C)C(=O)C(C)CC12C(=O)CCC2C(=O)O (configuration not stated)" measured_parameter="activity, negative = inhibition" val=inactive

---

System: Nanoluciferase (engineered Oplophorus gracilirostris luciferase)
procedure-summary: Primary Nanoluciferase (NLuc) qHTS assay for identification of artifact compounds. (AID 1845222);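 note: NLuc secreted into diluted conditioned medium of S16 cells; 0% = DMSO and -100% = no enzyme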
condition-parameters: NLuc-conditioned medium, Nano-Glo luminescence, 5 min; series mostly up to 54.1 µM
Activity calls are given as the source filed them. Calls follow the shape of the dose curve; as a rule, active = well fitted inhibition curve with a large enough effect; inconclusive = small, poorly fitted or top-dose-only effect; inactive = flat fitted curve, though single readings scatter. *1 amine or outer side, *2 acyl side, *3 side chain or, on linkers, in order; H or OH if unused. Where a SMILES comes first, the peptide text is derived from it. Bridges are numbered along the chain shown (N, C = ends). [ ]: non-standard residue; d: D form. The star is where a group is joined. ξ: configuration not given here. ξhTyr(3S-OH,4S-OH,3'-OSO3H) = NC(C(=O)O)[C@H](O)[C@@H](O)c1ccc(O)c(OS(=O)(=O)O)c1; Orn(4R-OH,5R-OH) = O=C([C@H](C[C@@H](O)[C@@H](O)N[*:3])N[*:1])[*:2]; X2 = CCCCCOc1ccc(-c2cc(-c3ccc(C(=O)*)cc3)no2)cc1; X3 = C[C@H]1CN([*:1])C(C(=O)[*:2])[C@H]1O; ξGln(3R-OH) = NC(=O)C[C@@H](O)C(N)C(=O)O; ξPro(4R-OH) = O=C(O)C1C[C@@H](O)CN1; ξThr(3R) = C[C@@H](O)C(N)C(=O)O
measured-parameter: activity, negative = inhibition

compound="CCCCCOc1ccc(-c2cc(-c3ccc(C(=O)N[C@H]4C[C@@H](O)[C@@H](O)NC(=O)C5[C@@H](O)[C@@H](C)CN5C(=O)C([C@H](O)CC(N)=O)NC(=O)C([C@H](O)[C@@H](O)c5ccc(O)c(OS(=O)(=O)O)c5)NC(=O)C5C[C@@H](O)CN5C(=O)C([C@@H](C)O)NC4=O)cc3)no2)cc1 (stereo partly drawn) (X2-[Orn(4R-OH,5R-OH)][ξThr(3R)][ξPro(4R-OH)][ξhTyr(3S-OH,4S-OH,3'-OSO3H)][ξGln(3R-OH)][X3]; lactam 1-C)" tested_target="Nanoluciferase (engineered Oplophorus gracilirostris luciferase)" val=inactive
compound=CC1(C)CC=C(C#Cc2ccccc2)c2cc(/C=C/c3ccc(C(=O)O)cc3)ccc21 tested_target="Nanoluciferase (engineered Oplophorus gracilirostris luciferase)" val=inactive
compound=C=CCC1=C[C@]2(OC)[C@H](C)[C@@H](c3ccc(OC)c(OC)c3)O[C@]2(OC)CC1=O tested_target="Nanoluciferase (engineered Oplophorus gracilirostris luciferase)" val=inactive
